molecular target: CDK9/cyclin T1 (Homo sapiens) (UniProt O60563+P50750); experiment: Inhibition of recombinant human CDK9/cyclin T1 at 10 uM using Ulight-CFFKNIVTPRTPPPSQGK-amide as substrate after 90 mins by fluorescence assay relative to control; type: protein-complex assay
metric_name: inhibition (%)

Record excerpt, results attached:
- compound_smiles: "CNCC(=O)Nc1n[nH]c2ncc(-c3ccc(O)cc3)cc12"
  inhibition, %: 64
- compound_smiles: "Nc1n[nH]c2ncc(-c3ccc(O)cc3)cc12"
  inhibition, %: 48
- compound_smiles: "O=C(Nc1n[nH]c2ncc(-c3ccccc3O)cc12)C1CCCCC1"
  inhibition, %: 78
- compound_smiles: "CNCCC(=O)Nc1n[nH]c2ncc(-c3ccc(O)cc3)cc12"
  inhibition, %: 64

A: CN1CCN(CCC(=O)Nc2n[nH]c3ncc(-c4ccc(O)cc4)cc23)CC1
B: O=C(Nc1n[nH]c2ncc(-c3cncnc3)cc12)C1CCCCC1
Query string: Of A and B , whose reported inhibition is the larger number? API: response body contains the label of the selected item.
Result string: B
(B: 83%, A: 49%)

----------
target: CDK9/cyclin T1 (Homo sapiens) (UniProt O60563+P50750); assay: Inhibition of recombinant human CDK9/cyclin T1 at 10 uM using Ulight-CFFKNIVTPRTPPPSQGK-amide as substrate after 90 mins by fluorescence assay relative to control; format: protein-complex assay
metric_name: inhibition (%)

Would you please look over these solved cases?
- compound_smiles: "O=C(Nc1n[nH]c2ncc(-c3cccc(O)c3)cc12)C1CCCCC1"
  measure_unit: "%"
  inhibition: 62
- compound_smiles: "O=C(Nc1n[nH]c2ncc(-c3ccc(CO)cc3)cc12)C1CCCCC1"
  measure_unit: "%"
  inhibition: 31
- compound_smiles: "O=C(CCCl)Nc1n[nH]c2ncc(-c3ccc(O)cc3)cc12"
  measure_unit: "%"
  inhibition: 73
- compound_smiles: "CCCCC(=O)Nc1n[nH]c2ncc(-c3ccc(O)cc3)cc12"
  measure_unit: "%"
  inhibition: 73

I: O=C(Nc1n[nH]c2ncc(-c3ccc(O)cc3)cc12)C1CCCCC1
II: Nc1n[nH]c2ncc(-c3ccc(F)cc3)cc12
III: O=C(Cc1ccccc1)Nc1n[nH]c2ncc(-c3ccc(O)cc3)cc12
Query string: Order these by inhibition, descending, and give the full ranking. Please respond with the labels ordered as the question requires.
Result string: I, II, III

----------
biological target: CDK2/Cyclin A2 (Homo sapiens) (UniProt P24941+P20248); assay: Inhibition of recombinant human CDK2/cyclin A at 10 uM using Ulight-CFFKNIVTPRTPPPSQGK-amide as substrate after 15 mins by fluorescence assay relative to control; assay type: protein-complex assay
metric_name: inhibition (%)

Solved cases below.
- compound_smiles: "O=C(Nc1n[nH]c2ncc(-c3ccc(CO)cc3)cc12)C1CCCCC1"
  numeric_readout: 34
- compound_smiles: "CC(C)(C)CC(=O)Nc1n[nH]c2ncc(-c3ccc(O)cc3)cc12"
  numeric_readout: 77
- compound_smiles: "O=C(Nc1n[nH]c2ncc(-c3ccncc3)cc12)C1CCCCC1"
  numeric_readout: 59
- compound_smiles: "CNCC(=O)Nc1n[nH]c2ncc(-c3ccc(O)cc3)cc12"
  numeric_readout: 68
- compound_smiles: "O=C(Nc1n[nH]c2ncc(-c3cncnc3)cc12)C1CCCCC1"
  numeric_readout: 96
- compound_smiles: "CCC(CC)C(=O)Nc1n[nH]c2ncc(-c3ccc(O)cc3)cc12"
  numeric_readout: 63
- compound_smiles: "O=C(Nc1n[nH]c2ncc(-c3cccc(O)c3)cc12)C1CCCCC1"
  numeric_readout: 63

A: O=C(CCN1CCOCC1)Nc1n[nH]c2ncc(-c3ccc(O)cc3)cc12
B: O=C(Cc1ccccc1)Nc1n[nH]c2ncc(-c3ccc(O)cc3)cc12
Query string: Field: lower inhibition | Options: A / B The response must carry the label of the picked entry.
Result string: A

----------
biological target: CDK9/cyclin T1 (Homo sapiens); experiment: Inhibition of recombinant human CDK9/cyclin T1 using Ulight-CFFKNIVTPRTPPPSQGK-amide as substrate after 90 mins by fluorescence assay relative to control
Sequence (O60563 whole entry): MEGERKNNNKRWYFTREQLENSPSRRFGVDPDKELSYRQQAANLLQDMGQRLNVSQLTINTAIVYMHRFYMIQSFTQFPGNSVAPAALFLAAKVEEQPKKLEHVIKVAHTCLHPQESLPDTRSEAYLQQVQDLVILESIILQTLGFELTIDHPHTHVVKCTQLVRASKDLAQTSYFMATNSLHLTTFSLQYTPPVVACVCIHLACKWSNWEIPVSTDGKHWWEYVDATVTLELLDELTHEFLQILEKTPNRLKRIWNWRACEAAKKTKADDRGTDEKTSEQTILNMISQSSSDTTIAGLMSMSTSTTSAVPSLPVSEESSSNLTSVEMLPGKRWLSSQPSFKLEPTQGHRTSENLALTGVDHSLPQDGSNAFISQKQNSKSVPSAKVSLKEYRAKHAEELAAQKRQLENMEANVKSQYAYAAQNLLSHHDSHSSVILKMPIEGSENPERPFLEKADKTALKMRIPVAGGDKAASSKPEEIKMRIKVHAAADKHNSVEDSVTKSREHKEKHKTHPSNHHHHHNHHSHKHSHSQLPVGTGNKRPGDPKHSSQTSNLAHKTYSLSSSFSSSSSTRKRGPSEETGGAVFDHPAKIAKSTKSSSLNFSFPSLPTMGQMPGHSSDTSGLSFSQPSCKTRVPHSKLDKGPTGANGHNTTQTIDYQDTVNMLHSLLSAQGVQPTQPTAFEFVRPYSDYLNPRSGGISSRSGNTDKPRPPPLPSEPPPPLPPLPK
Sequence (P50750 whole entry): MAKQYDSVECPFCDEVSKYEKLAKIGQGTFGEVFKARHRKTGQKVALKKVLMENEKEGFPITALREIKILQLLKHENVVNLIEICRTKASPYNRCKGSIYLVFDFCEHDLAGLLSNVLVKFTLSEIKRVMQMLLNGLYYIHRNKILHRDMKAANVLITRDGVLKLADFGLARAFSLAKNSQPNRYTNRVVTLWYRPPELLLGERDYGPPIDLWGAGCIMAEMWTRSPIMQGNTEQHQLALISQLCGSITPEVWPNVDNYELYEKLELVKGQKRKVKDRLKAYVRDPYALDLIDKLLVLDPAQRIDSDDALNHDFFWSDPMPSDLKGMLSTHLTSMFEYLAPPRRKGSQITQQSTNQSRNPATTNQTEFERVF
metric_name: IC50 (µM)

Would you please look over these solved cases?
- compound_smiles: "O=C(Nc1n[nH]c2ncc(-c3ccccc3O)cc12)C1CCCCC1"
  numeric_readout: 3.6
- compound_smiles: "CCC(CC)C(=O)Nc1n[nH]c2ncc(-c3ccc(O)cc3)cc12"
  numeric_readout: 529
- compound_smiles: "O=C(Nc1n[nH]c2ncc(-c3cncnc3)cc12)C1CCCCC1"
  numeric_readout: 1.8
- compound_smiles: "O=C(CCCl)Nc1n[nH]c2ncc(-c3ccc(O)cc3)cc12"
  numeric_readout: 2.4
- compound_smiles: "CCC(=O)Nc1n[nH]c2ncc(-c3ccc(O)cc3)cc12"
  numeric_readout: 2.4

1: CCCCC(=O)Nc1n[nH]c2ncc(-c3ccc(O)cc3)cc12
2: O=C(Nc1n[nH]c2ncc(-c3ccc(O)cc3)cc12)C1CCCCC1
Query string: Given the two records 1 and 2 , choose the one whose IC50 value is lower. Refer to your chosen item by its label in the answer.
Result string: 1
(1: 3.5 µM, 2: 10.4 µM)

----------
target: CDK2/Cyclin A2 (Homo sapiens) (UniProt P24941+P20248); experiment: Inhibition of recombinant human CDK2/cyclin A at 10 uM using Ulight-CFFKNIVTPRTPPPSQGK-amide as substrate after 15 mins by fluorescence assay relative to control; assay type: protein-complex assay
metric_name: inhibition (%)

Examples with their reported inhibition follow.
- compound_smiles: "Nc1n[nH]c2ncc(-c3ccc(O)cc3)cc12"
  target_of_assay: "CDK2/Cyclin A2 (Homo sapiens) (UniProt P24941+P20248)"
  numeric_readout: 58
- compound_smiles: "O=C(CCCl)Nc1n[nH]c2ncc(-c3ccc(O)cc3)cc12"
  target_of_assay: "CDK2/Cyclin A2 (Homo sapiens) (UniProt P24941+P20248)"
  numeric_readout: 98

I: CCCCC(=O)Nc1n[nH]c2ncc(-c3ccc(O)cc3)cc12
II: Nc1n[nH]c2ncc(-c3ccc(F)cc3)cc12
III: Nc1n[nH]c2ncc(-c3cncnc3)cc12
Query string: Highest inhibition first, then in falling order down to the smallest. # respond with the labels, arranged in the requested order
Result string: I, II, III

----------
target: CDK9/cyclin T1 (Homo sapiens) (UniProt O60563+P50750); assay: Inhibition of recombinant human CDK9/cyclin T1 at 10 uM using Ulight-CFFKNIVTPRTPPPSQGK-amide as substrate after 90 mins by fluorescence assay relative to control; format: protein-complex assay
metric_name: inhibition (%)

Check out these entries, answers already filled in.
- compound_smiles: "Nc1n[nH]c2ncc(-c3cncnc3)cc12"
  metric_name: "inhibition"
  numeric_readout: 50
- compound_smiles: "CCC(=O)Nc1n[nH]c2ncc(-c3ccc(O)cc3)cc12"
  metric_name: "inhibition"
  numeric_readout: 70
- compound_smiles: "CCC(CC)C(=O)Nc1n[nH]c2ncc(-c3ccc(O)cc3)cc12"
  metric_name: "inhibition"
  numeric_readout: 12
- compound_smiles: "O=C(Nc1n[nH]c2ncc(-c3ccncc3)cc12)C1CCCCC1"
  metric_name: "inhibition"
  numeric_readout: 59
- compound_smiles: "O=C(CCN1CCOCC1)Nc1n[nH]c2ncc(-c3ccc(O)cc3)cc12"
  metric_name: "inhibition"
  numeric_readout: 21

P: CN(C)CC(=O)Nc1n[nH]c2ncc(-c3ccc(O)cc3)cc12
Q: CC(C)CC(=O)Nc1n[nH]c2ncc(-c3ccc(O)cc3)cc12
R: O=C(Nc1n[nH]c2ncc(-c3ccc(F)cc3)cc12)C1CCCCC1
Query string: rank_up(items): orders items by reported inhibition in ascending numerical order. As an answer, provide the labels arranged in the order called for.
Result string: Q, R, P
(Q: 19%, R: 32%, P: 56%)

----------
target: CDK2/Cyclin A2 (Homo sapiens, UniProt P24941); test: Inhibition of recombinant human CDK2/cyclin A using Ulight-CFFKNIVTPRTPPPSQGK-amide as substrate after 15 mins by fluorescence assay relative to control
pIC50: −log10 of the molar value.
metric_name: pIC50

- compound_smiles: "O=C(CCCl)Nc1n[nH]c2ncc(-c3ccc(O)cc3)cc12"
  pIC50: 6.18
- compound_smiles: "CCC(CC)C(=O)Nc1n[nH]c2ncc(-c3ccc(O)cc3)cc12"
  pIC50: 5.70

A: CCC(=O)Nc1n[nH]c2ncc(-c3ccc(O)cc3)cc12
B: Nc1n[nH]c(N)c1/N=N/c1ccc(O)cc1
C: O=C(Nc1n[nH]c2ncc(-c3cncnc3)cc12)C1CCCCC1
Query string: Hey, quick one: sort these by pIC50, largest value first please. Present the labels in the sequence the task asks for.
Result string: C, A, B

----------
molecular target: CDK2/Cyclin A2 (Homo sapiens) (UniProt P24941+P20248); test: Inhibition of recombinant human CDK2/cyclin A at 10 uM using Ulight-CFFKNIVTPRTPPPSQGK-amide as substrate after 15 mins by fluorescence assay relative to control; type: protein-complex assay
metric_name: inhibition (%)

Sample records with inhibition:
- compound_smiles: "CNCCC(=O)Nc1n[nH]c2ncc(-c3ccc(O)cc3)cc12"
  numeric_readout: 39
- compound_smiles: "CC(C)CC(=O)Nc1n[nH]c2ncc(-c3ccc(O)cc3)cc12"
  numeric_readout: 54
- compound_smiles: "CN1CCN(CCC(=O)Nc2n[nH]c3ncc(-c4ccc(O)cc4)cc23)CC1"
  numeric_readout: 51

A: CN(C)CCC(=O)Nc1n[nH]c2ncc(-c3ccc(O)cc3)cc12
B: O=C(Nc1n[nH]c2ncc(-c3ccc(O)cc3)cc12)C1CCCCC1
Query string: Sorting by inhibition in descending order, would A or B appear first? # respond with the chosen item's label
Result string: B
(B: 86%, A: 59%)

A: O=C(Nc1n[nH]c2ncc(-c3ccccc3O)cc12)C1CCCCC1
B: CN(C)CC(=O)Nc1n[nH]c2ncc(-c3ccc(O)cc3)cc12
Query string: Given the listed items, does A or B have the lesser reported inhibition? Please indicate the selected item by its label.
Result string: B

FYI, the data here is from ChEMBL document CHEMBL4184312.
